The compounds listed here are annotated with their GI50.
test system: MDA-MB-468; experiment: Cytotoxicity against human MDA-MB-468 cells assessed as growth inhibition after 72 hrs by MTT assay; type: functional; conditions: MDA-MB-468, 72 h

entrySmiles	GI50
NCCCOc1ccc2ccccc2c1C(=O)NCCOc1cc2ccccc2cc1C(=O)Nc1ccc(Cl)cc1O	1700 nM
NCCCOc1cc(C(=O)NCCOc2cc3ccccc3cc2C(=O)Nc2ccc(Cl)cc2O)cc2ccccc12	550 nM
NCCCOc1cc(C(=O)NCCOc2cc3ccccc3cc2C(=O)Nc2ccc(Cl)cc2O)c2ccccc2c1	1650 nM
NCCCOc1c(C(=O)NCCOc2cc3ccccc3cc2C(=O)Nc2ccc(Cl)cc2O)ccc2ccccc12	1930 nM
